Data provenance: paper PMC6146057

Biological target: M1 (Homo sapiens)
Sequence (P11229 1-460): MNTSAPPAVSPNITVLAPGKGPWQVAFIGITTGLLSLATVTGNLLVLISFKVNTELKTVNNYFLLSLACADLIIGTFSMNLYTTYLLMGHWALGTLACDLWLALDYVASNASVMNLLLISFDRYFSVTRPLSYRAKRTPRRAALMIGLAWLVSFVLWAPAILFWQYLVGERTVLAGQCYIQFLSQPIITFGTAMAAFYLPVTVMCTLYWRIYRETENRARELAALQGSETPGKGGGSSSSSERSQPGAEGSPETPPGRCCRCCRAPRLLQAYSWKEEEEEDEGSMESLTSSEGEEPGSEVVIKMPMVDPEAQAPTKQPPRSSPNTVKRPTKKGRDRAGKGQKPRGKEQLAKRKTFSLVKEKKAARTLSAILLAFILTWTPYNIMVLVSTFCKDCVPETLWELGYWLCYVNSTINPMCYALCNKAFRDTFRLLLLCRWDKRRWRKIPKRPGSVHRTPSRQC
Assay: Calcium mobilization assay, high expression human M1 cell line
Assay type: cell-based
Conditions: M1 PAM pEC50, human M1, high expression line, EC20 ACh
pEC50: −log10 of the molar value.
measured.endpoint: pEC50

In [3]: df
Out[3]:
                    structure_smiles_string  assay_result
0  O=C(N[C@H]1CCCC[C@@H]1O)[C@H]1CN(Cc2ccc(-n3cccn3)cc2)c2ccccc2O1          6.53

---

Target: mouse M1 (Mus musculus, UniProt P12657)
Sequence (P12657 1-460): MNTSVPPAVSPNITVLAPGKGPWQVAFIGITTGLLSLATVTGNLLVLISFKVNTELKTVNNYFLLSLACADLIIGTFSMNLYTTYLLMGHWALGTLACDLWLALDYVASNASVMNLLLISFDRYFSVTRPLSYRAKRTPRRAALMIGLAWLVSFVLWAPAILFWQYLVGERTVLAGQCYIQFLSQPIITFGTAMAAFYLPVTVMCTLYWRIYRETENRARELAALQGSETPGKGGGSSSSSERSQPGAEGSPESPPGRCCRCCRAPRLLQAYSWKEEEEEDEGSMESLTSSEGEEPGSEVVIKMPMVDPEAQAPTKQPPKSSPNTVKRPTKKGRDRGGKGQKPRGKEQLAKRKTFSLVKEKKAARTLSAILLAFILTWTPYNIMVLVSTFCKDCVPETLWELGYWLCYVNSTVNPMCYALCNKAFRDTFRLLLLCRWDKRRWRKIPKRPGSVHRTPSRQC
Test: Calcium mobilization assay, mouse M1 cell line with low expression
Assay type: cell-based
Conditions: M1 PAM pEC50, mouse M1 cell line
measured.endpoint: EC50 (nM)

>>> print(df.to_string())
                                   molecule  assay_result
0  O=C(N[C@H]1CCCC[C@@H]1O)[C@H]1CN(Cc2ccc(-n3cccn3)cc2)c2ccccc2O1 [VU0486846]           562

---

Molecular target: M1 (Homo sapiens, UniProt P11229)
Test: M1 PAM potency at increasing ACh concentration
Format: cell-based
Conditions: read-out: M1 PAM potency; very low level of ACh (~EC9)
pEC50: −log10 of the molar value.
measured.endpoint: pEC50

>>> print(df.to_string())
                    structure_smiles_string  measured_endpoint  assay_result
0  Cc1cc2c(cc1Cc1ccc(-c3cocn3)cc1)C(=O)N([C@H]1CCOC[C@@H]1O)C2              pEC50          7.40
